# TARGET OR SYSTEM: T1, human IgE; monoclonal antibody SE44 (human, UniProt P01854-1 1-428)
# T1 construct: domain: human e constant region; also called IgE (SE44); human monoclonal IgE (SE44)
# PROTOCOL: BIAcore SPR, antibody captured via anti-human IgG, IgE SE44 25 nM, dissociation in HBS, 25°C
I'd be grateful if you could share measured koff for these entries.
Answers are plain numbers, in s⁻¹.

- reshaped human C21 antibody C21-H3/L2 (antibody, V domains shown) VH: QVQLVQSGAEVKKPGASVKVSCKASGYTFSMYWLEWVRQAPGHGLEWVGEISPGTFTTNYNEKFKARATFTADTSTNTAYMELSSLRSEDTAVYYCARFSHFSGSNYDYFDYWGQGTLVTVSS VL: DILLTQSPGTLSLSPGERATLSCRASQSIGTNIHWYQQKPGQAPRLLIKYASESISGIPDRFSGSGSGTDFTLTISRLEPEDFAMYYCQQSDSWPTTFGQGTKVEIK: 4.4e-05

I have 8 binders here; please give me koff for each one.
1. reshaped human C21 antibody C21-H1/L3 (antibody, V domains shown, C21-L3 is C21-L1 with Glu instead of Asp at position 1 and Val instead of Leu at position 3) VH: QVQLVQSGAEVKKPGASVKVSCKASGYTFSMYWLEWVKQRPGHGLEWVGEISPGTFTTNYNEKFKAKATFTADTSTNTAYMELSSLTSEDTAVYYCARFSHFSGSNYDYFDYWGQGTLVTVSS VL: EIVLTQSPGTLSLSPGERATLSCRASQSIGTNIHWYQQKPGQAPRLLIKYASESISGIPSRFSGSGSGTDFTLTISRLEPEDFAMYYCQQSDSWPTTFGQGTKVEIK
2. reshaped human C21 antibody C21-Hay3/L1 (antibody, V domains shown) VH: QVQLVQSGAEVKKPGASVKVSCKASGYTFSMYWLEWVRQAPGQRLEWMGEISPGTFTTNYNEKFKARATFTADTSASTAYMELSSLRSEDTAVYYCARFSHFSGSNYDYFDYWGQGTLVTVSS VL: DILLTQSPGTLSLSPGERATLSCRASQSIGTNIHWYQQKPGQAPRLLIKYASESISGIPSRFSGSGSGTDFTLTISRLEPEDFAMYYCQQSDSWPTTFGQGTKVEIK
3. reshaped human C21 antibody C21-H3/L3 (antibody, V domains shown) VH: QVQLVQSGAEVKKPGASVKVSCKASGYTFSMYWLEWVRQAPGHGLEWVGEISPGTFTTNYNEKFKARATFTADTSTNTAYMELSSLRSEDTAVYYCARFSHFSGSNYDYFDYWGQGTLVTVSS VL: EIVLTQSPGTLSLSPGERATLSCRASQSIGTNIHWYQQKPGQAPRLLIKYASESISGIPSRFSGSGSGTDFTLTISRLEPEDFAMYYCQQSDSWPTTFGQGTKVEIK
4. reshaped human C21 antibody C21-Hay3/L3 (antibody, V domains shown) VH: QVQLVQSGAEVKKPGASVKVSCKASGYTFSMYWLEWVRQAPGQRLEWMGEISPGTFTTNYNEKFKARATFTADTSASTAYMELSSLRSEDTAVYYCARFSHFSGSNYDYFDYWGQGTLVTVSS VL: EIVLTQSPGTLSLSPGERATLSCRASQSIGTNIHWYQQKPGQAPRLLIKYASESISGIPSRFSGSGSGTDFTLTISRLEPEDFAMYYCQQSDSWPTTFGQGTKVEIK
5. reshaped human C21 antibody C21-Hay3/L2 (antibody, V domains shown) VH: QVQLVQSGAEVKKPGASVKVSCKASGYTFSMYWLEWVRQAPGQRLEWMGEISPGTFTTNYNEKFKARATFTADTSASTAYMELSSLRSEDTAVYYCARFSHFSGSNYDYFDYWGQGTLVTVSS VL: DILLTQSPGTLSLSPGERATLSCRASQSIGTNIHWYQQKPGQAPRLLIKYASESISGIPDRFSGSGSGTDFTLTISRLEPEDFAMYYCQQSDSWPTTFGQGTKVEIK
6. reshaped human C21 antibody C21-H1/L2 (antibody, V domains shown, C21-L2 is C21-L1 with aspartic acid instead of serine at position 60) VH: QVQLVQSGAEVKKPGASVKVSCKASGYTFSMYWLEWVKQRPGHGLEWVGEISPGTFTTNYNEKFKAKATFTADTSTNTAYMELSSLTSEDTAVYYCARFSHFSGSNYDYFDYWGQGTLVTVSS VL: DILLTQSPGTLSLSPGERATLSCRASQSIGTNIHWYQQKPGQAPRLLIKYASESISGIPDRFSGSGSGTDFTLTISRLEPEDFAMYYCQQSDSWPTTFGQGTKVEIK
7. reshaped human C21 antibody C21-H1/L1 (antibody, V domains shown) VH: QVQLVQSGAEVKKPGASVKVSCKASGYTFSMYWLEWVKQRPGHGLEWVGEISPGTFTTNYNEKFKAKATFTADTSTNTAYMELSSLTSEDTAVYYCARFSHFSGSNYDYFDYWGQGTLVTVSS VL: DILLTQSPGTLSLSPGERATLSCRASQSIGTNIHWYQQKPGQAPRLLIKYASESISGIPSRFSGSGSGTDFTLTISRLEPEDFAMYYCQQSDSWPTTFGQGTKVEIK
8. reshaped human C21 antibody C21-H3/L1 (antibody, V domains shown) VH: QVQLVQSGAEVKKPGASVKVSCKASGYTFSMYWLEWVRQAPGHGLEWVGEISPGTFTTNYNEKFKARATFTADTSTNTAYMELSSLRSEDTAVYYCARFSHFSGSNYDYFDYWGQGTLVTVSS VL: DILLTQSPGTLSLSPGERATLSCRASQSIGTNIHWYQQKPGQAPRLLIKYASESISGIPSRFSGSGSGTDFTLTISRLEPEDFAMYYCQQSDSWPTTFGQGTKVEIK

Response:
["6.2e-05", "4.1e-05", "3.5e-05", 0.000159, "3.1e-05", "5.7e-05", "3e-05", "1.9e-05"]
